tested_system: full length (FL) LXRα (Homo sapiens, UniProt Q13133)
Construct: the full length (FL) proteins of LXRα (amino acids 1-447); NP005684; expressed in transfected cells; host or cells: HEK293
Sequence (Q13133 1-447): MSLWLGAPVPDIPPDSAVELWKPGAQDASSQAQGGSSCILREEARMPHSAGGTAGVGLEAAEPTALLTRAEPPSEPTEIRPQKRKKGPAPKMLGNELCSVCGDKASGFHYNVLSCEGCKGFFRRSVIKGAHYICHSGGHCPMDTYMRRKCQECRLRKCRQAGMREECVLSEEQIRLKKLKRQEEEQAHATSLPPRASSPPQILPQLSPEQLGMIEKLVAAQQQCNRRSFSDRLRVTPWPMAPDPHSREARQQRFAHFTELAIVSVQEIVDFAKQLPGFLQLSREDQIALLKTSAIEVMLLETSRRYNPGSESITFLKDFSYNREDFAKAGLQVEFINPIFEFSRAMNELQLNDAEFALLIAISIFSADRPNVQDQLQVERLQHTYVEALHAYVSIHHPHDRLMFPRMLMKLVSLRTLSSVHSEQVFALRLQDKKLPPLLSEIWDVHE
assay_overview: LXR Gal4 reporter transient transfection assay (FL-M2H Gal4α)
Type: cell-based
applied_conditions: HEK293 cells, full length LXRα; read-out: FL-M2H Gal4α (EC50 range)
pEC50: −log10 of the molar value.

molecule	pEC50
Cc1ccc(S(=O)(=O)n2c(-c3cccc(C45CCC(C(=O)O)(CC4)CC5)c3)c(-c3ccsc3C#N)c3cc(F)ccc32)cc1	> 7.00
COc1c(C(=O)O)ccc(-c2cccc(-c3c(-c4ccccc4C#N)c4cc(F)ccc4n3S(=O)(=O)c3ccc(C(F)F)cc3)c2)c1Cl	> 7.00
CC(O)(C(=O)O)c1ccc(-c2cccc(-c3c(-c4c(C#N)cccc4C#N)c4cc(F)ccc4n3S(=O)(=O)c3ccc(C(F)F)cc3)c2)cc1 (stereo not shown)	> 7.00
Cc1cccc(C#N)c1-c1c(-c2cccc(-c3ccc(C(=O)O)cc3Cl)c2)n(S(=O)(=O)c2ccc(C(F)F)cc2)c2ccc(F)cc12 (single isomer, unassigned) [41/2]	> 7.00
CC(O)(C(=O)O)c1ccc(-c2cccc(-c3c(-c4c(C#N)cccc4C#N)c4cc(F)ccc4n3S(=O)(=O)c3ccc(C(F)F)cc3)c2)c(Cl)c1 (stereo not shown)	> 7.00
N#Cc1cccc(C#N)c1-c1c(-c2cccc(-c3c(F)c(F)c(C(=O)O)c(F)c3F)c2)n(S(=O)(=O)c2ccc(C(F)F)cc2)c2ccc(F)cc12	> 7.00
N#Cc1cc(C(=O)O)ccc1-c1cccc(-c2c(-c3ccccc3C#N)c3cc(F)ccc3n2S(=O)(=O)c2ccc(C(F)F)cc2)c1	> 7.00
Cc1cc(S(=O)(=O)n2c(-c3cccc(-c4ccc(C(=O)O)cc4Cl)c3)c(-c3ccsc3C#N)c3cc(F)ccc32)ccc1F	> 7.00
N#Cc1cccc(C#N)c1-c1c(-c2cccc(-c3ccc(C(=O)O)cc3F)c2)n(S(=O)(=O)c2ccc(C(F)F)cc2)c2ccc(F)cc12	> 7.00
COc1ccc(S(=O)(=O)n2c(-c3cccc(N4CC(C(=O)O)C4)c3)c(-c3ccsc3C#N)c3cc(F)ccc32)cn1	6.00 to 7.00
CC(=O)NS(=O)(=O)c1ccc(-c2cccc(-c3c(-c4c(C#N)cccc4C#N)c4cc(F)ccc4n3S(=O)(=O)c3ccc(C(F)F)cc3)c2)c(Cl)c1	> 7.00
COc1cc(C(=O)O)ccc1-c1cccc(-c2c(-c3ccccc3C#N)c3cc(F)ccc3n2S(=O)(=O)c2ccc(C(F)F)cc2)c1	> 7.00
N#Cc1cccc(C#N)c1-c1c(-c2cccc([C@H]3CC[C@@H](C(=O)O)CC3)c2)n(S(=O)(=O)c2ccc(C(F)F)cc2)c2ccc(F)cc12	> 7.00
N#Cc1cccc(C#N)c1-c1c(-c2cccc(Br)c2)n(S(=O)(=O)c2ccc(C(F)F)cc2)c2ccc(F)cc12	> 7.00
N#Cc1cccc(C#N)c1-c1c(-c2cccc(-c3ccc(C(=O)O)cc3Cl)c2)n(S(=O)(=O)C2CC3CCC2C3)c2ccc(F)cc12 (stereo not shown)	> 7.00
O=C(O)c1ccc(-c2cccc(-c3c(-c4ccccc4C4COC4)c4cc(F)ccc4n3S(=O)(=O)c3ccc(Cl)cc3)c2)c(Cl)c1	> 7.00
Cc1cccc(C)c1-c1c(-c2cccc(-c3ccc(C(=O)O)cc3Cl)c2)n(S(=O)(=O)c2ccc(C(F)F)cc2)c2ccc(F)cc12	> 7.00
Cc1ccc(S(=O)(=O)n2c(-c3cccc(-c4ccc(CN(C)C)cc4)c3)c(-c3ccsc3C#N)c3cc(F)ccc32)cc1	> 7.00
N#Cc1sccc1-c1c(-c2cccc(N3CC(C(=O)O)C3)c2)n(S(=O)(=O)c2ccc(OC(F)F)cc2)c2ccc(F)cc12	6.00 to 7.00
Cc1cccc(C(F)F)c1-c1c(-c2cccc(-c3ccc(C(=O)O)cc3Cl)c2)n(S(=O)(=O)c2ccc(C(F)F)cc2)c2ccc(F)cc12	> 7.00
Cc1ccc(S(=O)(=O)n2c(-c3cc(N4CC(C(=O)O)C4)ccc3Cl)c(-c3ccsc3C#N)c3cc(F)ccc32)cc1	6.00 to 7.00
O=C(O)c1ccc(-c2cccc(-c3c(-c4ccccc4C4COC4)c4cc(F)ccc4n3S(=O)(=O)c3ccc(C(F)F)cc3)c2)c(Cl)c1	> 7.00
Cc1ccc(S(=O)(=O)n2c(-c3cccc(-c4cccc(S(C)(=O)=Nc5nnn[nH]5)c4)c3)c(-c3ccsc3C#N)c3cc(F)ccc32)cc1 (stereo not shown)	6.00 to 7.00
N#Cc1cccc(C#N)c1-c1c(-c2cccc(-c3ccc(C(=O)O)cc3Cl)c2)n(S(=O)(=O)c2ccc(C(F)(F)F)nc2)c2ccc(F)cc12	> 7.00
O=C(O)c1ccc(-c2cccc(-c3c(-c4c(C(F)F)cccc4C(F)F)c4cc(F)ccc4n3S(=O)(=O)c3ccc(C(F)F)cc3)c2)c(Cl)c1	> 7.00
